Test system: 653999-131-R-J2-PDC complex spheroids, growth % test/control;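 note: spheroids exposed to agents for seven days; 100% = DMSO vehicle control viability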
method.description: Anticancer human tumor 653999-131-R-J2-PDC patient-derived lung adenocarcinoma cell line growth inhibition [AhR]
measurement.conditions: second compound 0.1 µM; first compound 0.3 µM; stronger effect = lower value
readout.type: viability, T/C (%)
Expressed in %, but write only the number.

compound	tested.system	viability, T/C [%]
CCN(c1cc(-c2ccc(CN3CCOCC3)cc2)cc(C(=O)NCc2c(C)cc(C)[nH]c2=O)c1C)C1CCOCC1 + Cc1ccccc1N=Nc1ccc(NC(=O)c2ccnn2C)c(C)c1	653999-131-R-J2-PDC complex spheroids, growth % test/control	103
CCc1c2c(nc3ccc(O)cc13)-c1cc3c(c(=O)n1C2)COC(=O)[C@]3(O)CC + Cc1cncc(-c2nc(NCCc3c[nH]c4ccccc34)c3ncn(C(C)C)c3n2)c1	653999-131-R-J2-PDC complex spheroids, growth % test/control	13.7
O=C(C=Cn1cnc(-c2cc(C(F)(F)F)cc(C(F)(F)F)c2)n1)NNc1cnccn1 + Cc1cncc(-c2nc(NCCc3c[nH]c4ccccc34)c3ncn(C(C)C)c3n2)c1	653999-131-R-J2-PDC complex spheroids, growth % test/control	45.2
CCc1c2c(nc3ccc(O)cc13)-c1cc3c(c(=O)n1C2)COC(=O)[C@]3(O)CC + Cc1ccccc1N=Nc1ccc(NC(=O)c2ccnn2C)c(C)c1	653999-131-R-J2-PDC complex spheroids, growth % test/control	17.4
CCN(c1cc(-c2ccc(CN3CCOCC3)cc2)cc(C(=O)NCc2c(C)cc(C)[nH]c2=O)c1C)C1CCOCC1 + Cc1cncc(-c2nc(NCCc3c[nH]c4ccccc34)c3ncn(C(C)C)c3n2)c1	653999-131-R-J2-PDC complex spheroids, growth % test/control	94.6
Nc1ncn(C2CC(O)C(CO)S2)c(=O)n1 (stereo not drawn) + Cc1ccccc1N=Nc1ccc(NC(=O)c2ccnn2C)c(C)c1	653999-131-R-J2-PDC complex spheroids, growth % test/control	85.8

Fill in: viability, T/C of CCc1c2c(nc3ccc(O)cc13)-c1cc3c(c(=O)n1C2)COC(=O)[C@]3(O)CC + CC(CO)NC(=O)c1cc(-c2ccc(Cl)cc2)nn(-c2cnn(C)c2)c1=O is ___
12.7

Fill in: viability, T/C of O=C(C=Cn1cnc(-c2cc(C(F)(F)F)cc(C(F)(F)F)c2)n1)NNc1cnccn1 + Cc1ccccc1N=Nc1ccc(NC(=O)c2ccnn2C)c(C)c1 is ___
49.5
